Tested on: NCI-H1355
test_details: relative viability (nuclei count vs DMSO), 5 days (fraction); higher = more cells survive
test_parameters: first compound 0.04 µM
A collection of compounds and their measured relative viability
Respond using a number only.

// solved cases for relative viability follow
compound | relative viability
COc1cc(N2CCC(C(N)=O)CC2)ccc1Nc1nc(N)c(Cl)c(Nc2ccccc2S(=O)(=O)C(C)C)n1 [HG-5-88-01] + CC(=O)Nc1cccc(-n2c(=O)n(C3CC3)c(=O)c3c(Nc4ccc(I)cc4F)n(C)c(=O)c(C)c32)c1 [Trametinib] (partner 0.02 µM) | 0.439
COc1cc(N2CCC(C(N)=O)CC2)ccc1Nc1nc(N)c(Cl)c(Nc2ccccc2S(=O)(=O)C(C)C)n1 [HG-5-88-01] + Nc1ncn([C@H]2C[C@H](O)[C@@H](CO)O2)c(=O)n1 [Decitabine] (partner 2 µM) | 0.337
COc1cc(N2CCC(C(N)=O)CC2)ccc1Nc1nc(N)c(Cl)c(Nc2ccccc2S(=O)(=O)C(C)C)n1 [HG-5-88-01] + CC(C)C[C@H](NC(=O)[C@H](Cc1ccccc1)NC(=O)c1cnccn1)B(O)O [Bortezomib] (partner 0.002 µM) | 1.37

// below: relative viability requested for another compound
input: Please supply the value of reported relative viability for the item Clc1ccc(Nc2nnc(Cc3ccncc3)c3ccccc23)cc1 [Vatalanib] + C[C@@H](Oc1cc(-c2cnn(C3CCNCC3)c2)cnc1N)c1c(Cl)ccc(F)c1Cl [Crizotinib] (partner 1 µM)
output: 1.05

* * *

Tested on: SK-LU-1
test_details: relative viability (nuclei count vs DMSO), 5 days (fraction); higher = more cells survive
test_parameters: first compound 0.1265 µM
A collection of compounds and their measured relative viability
Respond using a number only.

// solved cases for relative viability follow
compound | relative viability
C[C@@H]1CN(CC(=O)Nc2ccc3c(c2)Cc2cccc(-c4cc(=O)cc(N5CCOCC5)o4)c2S3)C[C@H](C)O1 + Nc1ncn([C@H]2C[C@H](O)[C@@H](CO)O2)c(=O)n1 [Decitabine] (partner 2 µM) | 0.719
C[C@@H]1CN(CC(=O)Nc2ccc3c(c2)Cc2cccc(-c4cc(=O)cc(N5CCOCC5)o4)c2S3)C[C@H](C)O1 + Cc1nc(Nc2ncc(C(=O)Nc3c(C)cccc3Cl)s2)cc(N2CCN(CCO)CC2)n1 [Dasatinib] (partner 0.075 µM) | 0.203

input: Please supply the value of reported relative viability for the item C[C@@H]1CN(CC(=O)Nc2ccc3c(c2)Cc2cccc(-c4cc(=O)cc(N5CCOCC5)o4)c2S3)C[C@H](C)O1 + CS(=O)(=O)CCNCc1ccc(-c2ccc3ncnc(Nc4ccc(OCc5cccc(F)c5)c(Cl)c4)c3c2)o1 [Lapatinib] (partner 2 µM)
output: 0.959

* * *

System: NCI-H2170
test_details: relative viability (nuclei count vs DMSO), 5 days (fraction); higher = more cells survive
test_parameters: first compound 0.1265 µM
For each record, check the reported relative viability: if it is below 0.7 write Fulfilled, else write Not fulfilled.

compound | group_label
COc1cc(N2CCC(C(N)=O)CC2)ccc1Nc1nc(N)c(Cl)c(Nc2ccccc2S(=O)(=O)C(C)C)n1 [HG-5-88-01] + CCNC(=O)c1noc(-c2cc(C(C)C)c(O)cc2O)c1-c1ccc(CN2CCOCC2)cc1 [Luminespib] (partner 0.01 µM) | Not fulfilled
COc1cc(N2CCC(C(N)=O)CC2)ccc1Nc1nc(N)c(Cl)c(Nc2ccccc2S(=O)(=O)C(C)C)n1 [HG-5-88-01] + O=C(c1cc(Cc2n[nH]c(=O)c3ccccc23)ccc1F)N1CCN(C(=O)C2CC2)CC1 [Olaparib] (partner 8 µM) | Fulfilled

input: Please state whether relative viability is below 0.7 for C[C@@H]1CN(CC(=O)Nc2ccc3c(c2)Cc2cccc(-c4cc(=O)cc(N5CCOCC5)o4)c2S3)C[C@H](C)O1 + CC(=O)Nc1cccc(-n2c(=O)n(C3CC3)c(=O)c3c(Nc4ccc(I)cc4F)n(C)c(=O)c(C)c32)c1 [Trametinib] (partner 0.02 µM)
output: Not fulfilled

input: Please state whether relative viability is below 0.7 for C[C@@H]1CN(CC(=O)Nc2ccc3c(c2)Cc2cccc(-c4cc(=O)cc(N5CCOCC5)o4)c2S3)C[C@H](C)O1 + Nc1nc2[nH]cc(CCc3ccc(C(=O)N[C@@H](CCC(=O)O)C(=O)O)cc3)c2c(=O)[nH]1 [Pemetrexed] (partner 0.2 µM)
output: Fulfilled

input: Please state whether relative viability is below 0.7 for C[C@@H]1CN(CC(=O)Nc2ccc3c(c2)Cc2cccc(-c4cc(=O)cc(N5CCOCC5)o4)c2S3)C[C@H](C)O1 + Cc1nc(NC(=O)N2CCC[C@H]2C(N)=O)sc1-c1ccnc(C(C)(C)C(F)(F)F)c1 [Alpelisib] (partner 2 µM)
output: Not fulfilled

input: Please state whether relative viability is below 0.7 for COc1cc(N2CCC(C(N)=O)CC2)ccc1Nc1nc(N)c(Cl)c(Nc2ccccc2S(=O)(=O)C(C)C)n1 [HG-5-88-01] + COc1cccc2cc(-c3nc([C@H]4CC[C@H](C(=O)O)CC4)n4ncnc(N)c34)[nH]c12 [OSI-027] (partner 0.5 µM)
output: Not fulfilled

input: Please state whether relative viability is below 0.7 for Clc1ccc(Nc2nnc(Cc3ccncc3)c3ccccc23)cc1 [Vatalanib] + Cc1nc(Nc2ncc(C(=O)Nc3c(C)cccc3Cl)s2)cc(N2CCN(CCO)CC2)n1 [Dasatinib] (partner 0.075 µM)
output: Fulfilled

input: Please state whether relative viability is below 0.7 for Clc1ccc(Nc2nnc(Cc3ccncc3)c3ccccc23)cc1 [Vatalanib] + CS(=O)(=O)N1CCN(Cc2cc3nc(-c4cccc5[nH]ncc45)nc(N4CCOCC4)c3s2)CC1 [Pictilisib] (partner 1 µM)
output: Fulfilled

input: Please state whether relative viability is below 0.7 for C[C@@H]1CN(CC(=O)Nc2ccc3c(c2)Cc2cccc(-c4cc(=O)cc(N5CCOCC5)o4)c2S3)C[C@H](C)O1 + CS(=O)(=O)N1CCN(Cc2cc3nc(-c4cccc5[nH]ncc45)nc(N4CCOCC4)c3s2)CC1 [Pictilisib] (partner 1 µM)
output: Fulfilled

* * *

Test system: LCLC-97TM1
test_details: relative viability (nuclei count vs DMSO), 5 days (fraction); higher = more cells survive
test_parameters: first compound 0.3162 µM
property_name: relative viability
Respond using a number only.

// solved cases for relative viability follow
compound | relative viability
CC(C)Oc1cc(Nc2nc(N[C@@H](C)c3ccc(F)cn3)ncc2Cl)n[nH]1 [AZ23] + Nc1ncn([C@H]2C[C@H](O)[C@@H](CO)O2)c(=O)n1 [Decitabine] (partner 2 µM) | 0.233
CC(C)Oc1cc(Nc2nc(N[C@@H](C)c3ccc(F)cn3)ncc2Cl)n[nH]1 [AZ23] + O=C(c1cc(Cc2n[nH]c(=O)c3ccccc23)ccc1F)N1CCN(C(=O)C2CC2)CC1 [Olaparib] (partner 8 µM) | 0.416

// below: relative viability requested for another compound
input: Please supply the value of reported relative viability for the item CC(C)Oc1cc(Nc2nc(N[C@@H](C)c3ccc(F)cn3)ncc2Cl)n[nH]1 [AZ23] + C[C@@H](Oc1cc(-c2cnn(C3CCNCC3)c2)cnc1N)c1c(Cl)ccc(F)c1Cl [Crizotinib] (partner 1 µM)
output: 0.305

* * *

Test system: HCC-44
test_details: relative viability (nuclei count vs DMSO), 5 days (fraction); higher = more cells survive
test_parameters: first compound 0.1265 µM
property_name: relative viability
Respond using a number only.

compound | obs_value
COc1cc(N2CCC(C(N)=O)CC2)ccc1Nc1nc(N)c(Cl)c(Nc2ccccc2S(=O)(=O)C(C)C)n1 [HG-5-88-01] + O=C(CCCCCCC(=O)Nc1ccccc1)NO [Vorinostat] (partner 1 µM) | 1.14
COc1cc(N2CCC(C(N)=O)CC2)ccc1Nc1nc(N)c(Cl)c(Nc2ccccc2S(=O)(=O)C(C)C)n1 [HG-5-88-01] + CC(=O)Nc1cccc(-n2c(=O)n(C3CC3)c(=O)c3c(Nc4ccc(I)cc4F)n(C)c(=O)c(C)c32)c1 [Trametinib] (partner 0.02 µM) | 1.03
COc1cc(N2CCC(C(N)=O)CC2)ccc1Nc1nc(N)c(Cl)c(Nc2ccccc2S(=O)(=O)C(C)C)n1 [HG-5-88-01] + CS(=O)(=O)N1CCN(Cc2cc3nc(-c4cccc5[nH]ncc45)nc(N4CCOCC4)c3s2)CC1 [Pictilisib] (partner 1 µM) | 0.569

input: Please supply the value of reported relative viability for the item COc1cc(N2CCC(C(N)=O)CC2)ccc1Nc1nc(N)c(Cl)c(Nc2ccccc2S(=O)(=O)C(C)C)n1 [HG-5-88-01] + N=C(N)NC(=N)NCCc1ccccc1 [Phenformin] (partner 250 µM)
output: 0.156

* * *

System: NCI-H1395
test_details: relative viability (nuclei count vs DMSO), 5 days (fraction); higher = more cells survive
test_parameters: first compound 0.1265 µM
For each record, check the reported relative viability: if it is below 0.8 write rule met, else write rule not met.

// below: answered compounds
compound | group_label
C[C@@H]1CN(CC(=O)Nc2ccc3c(c2)Cc2cccc(-c4cc(=O)cc(N5CCOCC5)o4)c2S3)C[C@H](C)O1 + N=C(N)NC(=N)NCCc1ccccc1 [Phenformin] (partner 250 µM) | rule met
Clc1ccc(Nc2nnc(Cc3ccncc3)c3ccccc23)cc1 [Vatalanib] + Cc1cc(Nc2cc(N3CCN(C)CC3)nc(Sc3ccc(NC(=O)C4CC4)cc3)n2)n[nH]1 [Tozasertib] (partner 0.1 µM) | rule met
C[C@@H]1CN(CC(=O)Nc2ccc3c(c2)Cc2cccc(-c4cc(=O)cc(N5CCOCC5)o4)c2S3)C[C@H](C)O1 + Nc1ncn([C@H]2C[C@H](O)[C@@H](CO)O2)c(=O)n1 [Decitabine] (partner 2 µM) | rule met
Clc1ccc(Nc2nnc(Cc3ccncc3)c3ccccc23)cc1 [Vatalanib] + CCNC(=O)c1noc(-c2cc(C(C)C)c(O)cc2O)c1-c1ccc(CN2CCOCC2)cc1 [Luminespib] (partner 0.01 µM) | rule met
COc1cc(N2CCC(C(N)=O)CC2)ccc1Nc1nc(N)c(Cl)c(Nc2ccccc2S(=O)(=O)C(C)C)n1 [HG-5-88-01] + CC1(C)CCC(c2ccc(Cl)cc2)=C(CN2CCN(c3ccc(C(=O)NS(=O)(=O)c4ccc(N[C@H](CCN5CCOCC5)CSc5ccccc5)c(S(=O)(=O)C(F)(F)F)c4)cc3)CC2)C1 [Navitoclax] (partner 0.5 µM) | rule not met

input: Please state whether relative viability is below 0.8 for Clc1ccc(Nc2nnc(Cc3ccncc3)c3ccccc23)cc1 [Vatalanib] + C[C@]1(O)C[C@@H](c2nc(-c3ccc4ccc(-c5ccccc5)nc4c3)c3c(N)nccn32)C1 [Linsitinib] (partner 1 µM)
output: rule not met

input: Please state whether relative viability is below 0.8 for COc1cc(N2CCC(C(N)=O)CC2)ccc1Nc1nc(N)c(Cl)c(Nc2ccccc2S(=O)(=O)C(C)C)n1 [HG-5-88-01] + COc1cccc2cc(-c3nc([C@H]4CC[C@H](C(=O)O)CC4)n4ncnc(N)c34)[nH]c12 [OSI-027] (partner 0.5 µM)
output: rule met

Where these numbers come from: the supplement of paper PMC10307832
